Compiled IC50 measurements on Coagulation factor XI (Homo sapiens) taken from the literature.

# molecule, IC50
measured = [
    ("Nc1c(C(=O)N2CCC[C@@]3(C2)OC(=O)Nc2ccc(Cl)c(F)c23)cnn1-c1cccc(F)c1OC(F)F", "461 nM"),
    ("CC(C)CC(C(=O)Nc1ccc(C(=O)O)cc1)n1cc2c(cc1=O)-c1cc(Cl)ccc1CCNC2=O (stereo not drawn)", "36 nM"),
    ("Cc1ncc(-c2c(C(F)F)ccc(Cl)c2F)nc1C(=O)Nc1cnn(C(C)c2cnc(N3C[C@H]4C[C@H]4C3=O)c(F)c2C)c1 (single isomer, unassigned)", "596 nM"),
]
